# assay-overview: HPLC lipophilicity on IAM (immobilized artificial membrane, phosphatidylcholine) stationary phase
# Assay type: physicochemical
# recorded-conditions: intercept, linear extrapolation to water; ACN/20 mM phosphate buffer, pH 7.4
quantity-measured: log kw IAM
Write no unit; give the number alone.

O=C(COc1ccccc1)NNC(=S)Nc1ccccc1Cl; 1.5588
O=C(COc1ccccc1)NNC(=S)Nc1cccc(Cl)c1; 1.9101
O=C(COc1ccccc1)NNC(=S)Nc1ccc(Cl)c(Cl)c1; 2.5780
O=C(COc1ccccc1)NNC(=S)Nc1ccccc1; 1.0288
CSc1ccc(NC(=S)NNC(=O)COc2ccccc2)cc1; 1.6998

Record summary for O=C(COc1ccccc1)NNC(=S)Nc1cc(Cl)ccc1Cl : reported log kw IAM = 2.6121

Lab book: log kw IAM of O=C(COc1ccccc1)NNC(=S)Nc1ccc(F)cc1 noted as 1.1652

compound O=C(COc1ccccc1)NNC(=S)Nc1ccccc1I , log kw IAM observed: 1.7099

# compound O=C(COc1ccccc1)NNC(=S)Nc1ccccc1F ; its log kw IAM = 1.1961

For this compound ( O=C(COc1ccccc1)NNC(=S)Nc1cccc(Br)c1 ), measured log kw IAM is 2.1389

response.value for O=C(COc1ccccc1)NNC(=S)Nc1cccc(F)c1 (field: log kw IAM) = 1.4283

====

# assay-overview: HPLC lipophilicity on cholesterol (Chol) stationary phase
# Type: physicochemical
# recorded-conditions: Table S3; MeOH 0.80 v/v in mobile phase, pH 7.4
quantity-measured: Log k Chol
Just the number.

Example results:
O=C(COc1ccccc1)NNC(=S)Nc1ccc(F)cc1 [Compound 9]; -0.997
CSc1ccc(NC(=S)NNC(=O)COc2ccccc2)cc1 [Compound 17]; -0.975
O=C(COc1ccccc1)NNC(=S)Nc1cccc(I)c1 [Compound 8]; -0.984
O=C(COc1ccccc1)NNC(=S)Nc1ccccc1 [Compound 1]; -1.006
O=C(COc1ccccc1)NNC(=S)Nc1ccc(Cl)c(Cl)c1 [Compound 15]; -0.876
O=C(COc1ccccc1)NNC(=S)Nc1ccc(Br)cc1 [Compound 11]; -0.886
O=C(COc1ccccc1)NNC(=S)Nc1ccc(Cl)cc1Cl [Compound 13]; -1.016
O=C(COc1ccccc1)NNC(=S)Nc1cc(Cl)ccc1Cl [Compound 14]; -0.783
O=C(COc1ccccc1)NNC(=S)Nc1ccccc1I [Compound 4]; -0.938

Here is another compound to look at.
# Log k Chol (compound: O=C(COc1ccccc1)NNC(=S)Nc1ccc(Cl)cc1 [Compound 10] ) is -0.946

====

# assay-overview: HPLC lipophilicity on IAM (immobilized artificial membrane, phosphatidylcholine) stationary phase
# Format: physicochemical
# recorded-conditions: slope of Soczewiński–Wachtmeister equation; ACN/20 mM phosphate buffer, pH 7.4
quantity-measured: -S IAM
// no unit, no text: just the number

Some compounds with known -S IAM results, for comparison:
O=C(COc1ccccc1)NNC(=S)Nc1ccc([N+](=O)[O-])cc1 [Compound 16]; 6.0875
O=C(COc1ccccc1)NNC(=S)Nc1cccc(Br)c1 [Compound 7]; 6.8947
O=C(COc1ccccc1)NNC(=S)Nc1ccccc1Cl [Compound 3]; 5.2422
CSc1ccc(NC(=S)NNC(=O)COc2ccccc2)cc1 [Compound 17]; 5.7908
O=C(COc1ccccc1)NNC(=S)Nc1ccc(Cl)c(Cl)c1 [Compound 15]; 7.5617
O=C(COc1ccccc1)NNC(=S)Nc1ccc(Cl)cc1Cl [Compound 13]; 6.2034
O=C(COc1ccccc1)NNC(=S)Nc1cccc(I)c1 [Compound 8]; 6.9157
O=C(COc1ccccc1)NNC(=S)Nc1ccc(I)cc1 [Compound 12]; 6.8364

O=C(COc1ccccc1)NNC(=S)Nc1cc(Cl)ccc1Cl [Compound 14] has a reported -S IAM of 7.6211

// recorded -S IAM for O=C(COc1ccccc1)NNC(=S)Nc1cccc(F)c1 [Compound 5] : 5.5312

Entry O=C(COc1ccccc1)NNC(=S)Nc1cccc(Cl)c1 [Compound 6] — recorded -S IAM = 6.3395

Lab book: -S IAM of O=C(COc1ccccc1)NNC(=S)Nc1ccccc1F [Compound 2] noted as 4.8953

Summary for this compound, O=C(COc1ccccc1)NNC(=S)Nc1ccc(Cl)cc1 [Compound 10] : -S IAM is 6.0976

Query O=C(COc1ccccc1)NNC(=S)Nc1ccc(Br)cc1 [Compound 11] yields -S IAM of 6.5856

====

# system-name: human serum albumin (HSA) (Homo sapiens, UniProt P02768)
# Construct: purchased Chiralpac
# Sequence (P02768 25-609): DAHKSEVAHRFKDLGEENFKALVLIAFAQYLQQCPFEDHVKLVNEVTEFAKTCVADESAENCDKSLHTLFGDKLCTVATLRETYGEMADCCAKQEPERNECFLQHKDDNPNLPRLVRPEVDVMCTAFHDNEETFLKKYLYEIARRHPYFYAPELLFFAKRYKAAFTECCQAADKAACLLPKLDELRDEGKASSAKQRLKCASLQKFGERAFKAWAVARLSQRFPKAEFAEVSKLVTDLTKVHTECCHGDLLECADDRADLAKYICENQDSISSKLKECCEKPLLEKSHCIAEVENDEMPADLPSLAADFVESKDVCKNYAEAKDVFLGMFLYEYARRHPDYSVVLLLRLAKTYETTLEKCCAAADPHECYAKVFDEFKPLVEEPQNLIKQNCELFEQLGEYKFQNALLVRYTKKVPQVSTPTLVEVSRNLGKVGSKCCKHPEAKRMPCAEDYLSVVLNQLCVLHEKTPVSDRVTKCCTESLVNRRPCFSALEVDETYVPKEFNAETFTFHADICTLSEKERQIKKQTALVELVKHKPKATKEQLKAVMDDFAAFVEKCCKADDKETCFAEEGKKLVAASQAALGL
# assay-overview: HPLC on immobilized HSA column, affinity and % plasma–protein binding
# Assay type: in vitro ADME
# recorded-conditions: retention on HSA column; 50 mM ammonium acetate pH 7.4 / propan-2-ol 85/15 (v/v)
# Protocol: Measurements on HSA and AGP immobilized protein columns were carried out with […] isopropanol content in the aqueous mobile phase. […] HPLC measurements were performed using a liquid chromatograph Knauer (Knauer, Berlin, Germany) with a dual pump, a 20 µL simple injection valve, and a UV–visible detector. The compounds were detected under UV light at 280 nm at room temperature. […]
Criterion: log k HSA strictly less than 1. Met: criterion met. Not met: criterion not met.

Here's what some known entries look like.
O=C(COc1ccccc1)NNC(=S)Nc1ccc(I)cc1; criterion not met
O=C(COc1ccccc1)NNC(=S)Nc1ccc(Cl)c(Cl)c1; criterion not met
O=C(COc1ccccc1)NNC(=S)Nc1ccccc1; criterion met
O=C(COc1ccccc1)NNC(=S)Nc1cccc(I)c1; criterion not met
O=C(COc1ccccc1)NNC(=S)Nc1cccc(F)c1; criterion met

Now let's try a different one.
-- ask Confirm or reject: log k HSA of CSc1ccc(NC(=S)NNC(=O)COc2ccccc2)cc1 lies strictly below 1
-- reply criterion not met

====

# assay-overview: HPLC lipophilicity on cholesterol (Chol) stationary phase
# Format: physicochemical
# recorded-conditions: Table S3; MeOH 0.60 v/v in mobile phase, pH 7.4
quantity-measured: Log k Chol
Respond using a number only.

Reference set (3 entries):
O=C(COc1ccccc1)NNC(=S)Nc1cccc2ccccc12 [Compound 18]; 0.062
O=C(COc1ccccc1)NNC(=S)Nc1ccccc1I [Compound 4]; -0.037
O=C(COc1ccccc1)NNC(=S)Nc1ccc(Br)cc1 [Compound 11]; 0.276

// Log k Chol lookup, compound = O=C(COc1ccccc1)NNC(=S)Nc1ccc([N+](=O)[O-])cc1 [Compound 16] , result: -0.189

Data point: O=C(COc1ccccc1)NNC(=S)Nc1ccccc1F [Compound 2] ; Log k Chol = -0.314

So for O=C(COc1ccccc1)NNC(=S)Nc1cccc(I)c1 [Compound 8] , the logged Log k Chol turned out to be 0.522

// sample O=C(COc1ccccc1)NNC(=S)Nc1ccc(F)cc1 [Compound 9] , its Log k Chol was -0.078

Item: O=C(COc1ccccc1)NNC(=S)Nc1ccc(Cl)cc1 [Compound 10] | Log k Chol: 0.206

====

# assay-overview: HPLC lipophilicity on cholesterol (Chol) stationary phase
# Assay type: physicochemical
# recorded-conditions: Table S3; MeOH 0.40 v/v in mobile phase, pH 7.4
Mark fulfilled for Log k Chol under 1, not fulfilled if at or over.

// known answers, use as guide
O=C(COc1ccccc1)NNC(=S)Nc1ccccc1Cl; fulfilled
O=C(COc1ccccc1)NNC(=S)Nc1ccc(I)cc1; not fulfilled
O=C(COc1ccccc1)NNC(=S)Nc1cccc(Br)c1; not fulfilled

Below: the item to evaluate.
-- ask Here's an entry: O=C(COc1ccccc1)NNC(=S)Nc1ccc(Cl)cc1Cl . Is its Log k Chol below 1?
-- reply not fulfilled

====

# assay-overview: HPLC lipophilicity on cholesterol (Chol) stationary phase
# Format: physicochemical
# recorded-conditions: Table S3; MeOH 0.45 v/v in mobile phase, pH 7.4
quantity-measured: Log k Chol

Answered cases to consult:
O=C(COc1ccccc1)NNC(=S)Nc1ccc(Cl)cc1; 0.836
O=C(COc1ccccc1)NNC(=S)Nc1ccc([N+](=O)[O-])cc1; 0.478
CSc1ccc(NC(=S)NNC(=O)COc2ccccc2)cc1; 0.878
O=C(COc1ccccc1)NNC(=S)Nc1cccc2ccccc12; 0.758

For record O=C(COc1ccccc1)NNC(=S)Nc1ccc(Cl)c(Cl)c1 the listed Log k Chol is 1.349

====

# assay-overview: HPLC lipophilicity on IAM (immobilized artificial membrane, phosphatidylcholine) stationary phase
# Assay type: physicochemical
# recorded-conditions: Table S2; ACN 0.35 v/v in mobile phase, pH 7.4
// boundary case: Log k IAM equal to -0.2 maps to rule not met; strictly smaller maps to rule met

Solved cases below.
O=C(COc1ccccc1)NNC(=S)Nc1ccc(F)cc1; rule met
CSc1ccc(NC(=S)NNC(=O)COc2ccccc2)cc1; rule met
O=C(COc1ccccc1)NNC(=S)Nc1ccc([N+](=O)[O-])cc1; rule met
O=C(COc1ccccc1)NNC(=S)Nc1ccccc1Cl; rule met
O=C(COc1ccccc1)NNC(=S)Nc1cc(Cl)ccc1Cl; rule not met

-- ask Just wondering, is Log k IAM of O=C(COc1ccccc1)NNC(=S)Nc1ccccc1I below -0.2?
-- reply rule not met

-- ask For this compound, is Log k IAM lower than -0.2? O=C(COc1ccccc1)NNC(=S)Nc1cccc(F)c1
-- reply rule met

-- ask Is the reported Log k IAM for O=C(COc1ccccc1)NNC(=S)Nc1ccc(I)cc1 strictly below -0.2?
-- reply rule not met

-- ask Determine if O=C(COc1ccccc1)NNC(=S)Nc1ccc(Cl)c(Cl)c1 shows Log k IAM strictly lower than -0.2.
-- reply rule not met

-- ask Hi there! Is Log k IAM for O=C(COc1ccccc1)NNC(=S)Nc1ccccc1 below -0.2, do you know?
-- reply rule met

-- ask Report whether reported Log k IAM is lower than -0.2 (strictly) for O=C(COc1ccccc1)NNC(=S)Nc1cccc2ccccc12
-- reply rule met

-- ask Lab log: compare recorded Log k IAM with -0.2; is it strictly lower for O=C(COc1ccccc1)NNC(=S)Nc1ccccc1F ?
-- reply rule met
